test: Cell Viability - Hek293 (AID 427); conditions: qHTS;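 also: cells exposed to compound for 40 hours at 37 °C before reading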
Results filed as inconclusive are left out. Activity calls are given as the source filed them.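 The calls were made as follows: active = compounds whose dose-response curve shows a full or clear partial loss of cell viability, called from curve shape rather than a numeric limit; inconclusive = weak partial curves or an effect only at the top dose; inactive = no dose-dependent loss of viability.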
Your reply should match one of these outcome classes. active, inactive

See these solved cases before continuing.
Per the records of this test, what outcome belongs to CCCCCCCCCCCC[N+](C)(C)CCOc1ccccc1 ?
active

Per the records of this test, what outcome belongs to COP(=O)(OC)OC=C(Cl)Cl ?
inactive

Per the records of this test, what outcome belongs to Oc1c(Br)cc(Br)cc1Br ?
inactive

From here, focus on the item given below.
Per the records of this test, what outcome belongs to CN(C)C(=S)SSC(=S)N(C)C ?
active
